Target: Fatty acid amide hydrolase (FAAH) (Rattus norvegicus, UniProt P97612)
Sequence (P97612 whole entry): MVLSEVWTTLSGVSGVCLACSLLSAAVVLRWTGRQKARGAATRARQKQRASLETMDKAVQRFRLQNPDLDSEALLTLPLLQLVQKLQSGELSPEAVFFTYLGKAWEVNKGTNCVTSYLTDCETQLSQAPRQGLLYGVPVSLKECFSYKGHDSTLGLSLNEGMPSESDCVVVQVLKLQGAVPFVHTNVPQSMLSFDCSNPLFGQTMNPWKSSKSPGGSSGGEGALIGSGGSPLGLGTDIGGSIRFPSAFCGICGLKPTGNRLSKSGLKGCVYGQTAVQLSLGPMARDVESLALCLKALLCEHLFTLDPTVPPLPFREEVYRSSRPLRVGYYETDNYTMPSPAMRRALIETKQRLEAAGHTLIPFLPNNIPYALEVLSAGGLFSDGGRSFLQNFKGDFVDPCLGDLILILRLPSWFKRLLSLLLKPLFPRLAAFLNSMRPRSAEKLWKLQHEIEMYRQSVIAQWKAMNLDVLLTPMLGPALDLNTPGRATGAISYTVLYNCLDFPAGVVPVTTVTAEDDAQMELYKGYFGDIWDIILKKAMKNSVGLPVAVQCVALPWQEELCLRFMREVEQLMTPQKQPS
Assay: Fatty acid amide hydrolase (FAAH) inhibition, quantitation of labelled ethanolamine
Format: biochemical, Wistar Rat
Conditions: reference compound, concurrent, batch 144988
pIC50: −log10 of the molar value.

- compound: "CCCCCCCC/C=C\\CCCCCCCC(=O)C(F)(F)F [Oleyl Trifluormethyl Ketone]"
  system: "Fatty acid amide hydrolase (FAAH) (Rattus norvegicus, UniProt P97612)"
  pIC50: 7.45
